MEASURED_ON: Plasmodium falciparum protein kinase 6 (PK6, PF3D7_1337100) (UniProt Q8IDW1)
Sequence (Q8IDW1 1-305): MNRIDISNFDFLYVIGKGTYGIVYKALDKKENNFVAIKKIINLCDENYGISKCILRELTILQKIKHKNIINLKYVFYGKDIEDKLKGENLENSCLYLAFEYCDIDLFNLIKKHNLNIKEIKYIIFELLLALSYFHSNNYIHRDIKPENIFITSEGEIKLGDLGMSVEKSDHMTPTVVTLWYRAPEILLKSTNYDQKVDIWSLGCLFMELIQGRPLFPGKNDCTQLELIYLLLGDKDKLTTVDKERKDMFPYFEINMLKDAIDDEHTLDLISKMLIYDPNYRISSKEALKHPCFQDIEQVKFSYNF
ASSAY_SUMMARY: PfPK6 kinase inhibitors, biochemical, TCAMS library (AID 1159586)
STUDY_CONDITIONS: recombinant PfPK6, Kinase-Glo ATP depletion luminescence
Entries with a potency or affinity are not part of this list. Activity calls are given as the source filed them. The rule behind the calls is not given here.
QUANTITY_NAME: outcome

>>> result("Cc1cnccc1/C=C/c1cccc(OCCN2CCc3ccc(S(C)(=O)=O)cc3CC2)c1")
"inactive"
>>> result("CNc1nc(NN=Cc2cc([N+](=O)[O-])c(Cl)cc2Cl)nc(Nc2cccc(C(F)(F)F)c2)n1")
"inactive"
>>> result("O=C(Nc1ccc(F)cc1)NC1CCN(c2ccnc3cc(Cl)ccc23)CC1")
"inactive"
>>> result("CC1=C(C(=O)Nc2cc3cn[nH]c3cc2F)C(c2cccc(O)c2F)CC(=O)N1 (stereo unspecified)")
"inactive"

Item: `Cc1cccc2[nH]c(-c3cccc(-c4cccc(CNCCN5CCNCC5)c4)c3)nc12` Test system: Plasmodium falciparum protein kinase 6 (PK6, PF3D7_1337100) (UniProt Q8IDW1) Read-out: outcome Value: ? inactive

Checklist item: outcome tested on Plasmodium falciparum protein kinase 6 (PK6, PF3D7_1337100) (UniProt Q8IDW1), entry `Cc1ccccc1CNc1noc(-c2c(-c3ccccc3)noc2C)n1` , value? inactive

Any idea what outcome came out for `CNc1nc(NN=Cc2ccccc2Cl)nc(Nc2cccc(C(F)(F)F)c2)n1` on Plasmodium falciparum protein kinase 6 (PK6, PF3D7_1337100) (UniProt Q8IDW1)? inactive

outcome of `CCCCN1CCCN(Cc2cccc(NC(=O)c3ccc(-c4ccccc4)cc3)c2)CC1` on Plasmodium falciparum protein kinase 6 (PK6, PF3D7_1337100) (UniProt Q8IDW1)? inactive
